FACS Binding Geomean: recorded values
Biological target: T1, human ASGR-1 (wild type) (human, UniProt P07306 1-291)
T1 construct: also called wt ASGR1; huASGR-1
T1 sequence: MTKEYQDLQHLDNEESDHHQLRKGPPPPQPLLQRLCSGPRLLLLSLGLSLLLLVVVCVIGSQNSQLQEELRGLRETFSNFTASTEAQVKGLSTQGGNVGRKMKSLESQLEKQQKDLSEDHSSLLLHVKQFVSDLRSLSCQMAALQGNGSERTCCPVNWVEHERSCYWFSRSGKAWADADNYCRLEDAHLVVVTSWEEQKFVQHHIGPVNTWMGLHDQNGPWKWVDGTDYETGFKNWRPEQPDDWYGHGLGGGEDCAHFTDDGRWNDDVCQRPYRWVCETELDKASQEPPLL
Assay: FACS, transfected CHO-S cells, mAb 5 ug/ml
Lab note: write the figure by itself, no unit.

Qu. Find the measured FACS Binding Geomean of 198D2 (antibody, V domains shown, mAb) VH: QVQLVESGGGVVQPGRSLRLSCAASGFTFRSYGMHWVRQAPGKGLEWVAVIIYDGSYKYYADSVKGRFTISRDNSKNTLYLQMNSLRAEDTAVYYCARTYSGGMDVWGQGTTVTVSS VL: QSVLTQPPSVSAAPGQKVTISCSGSSSNIGSNYVSWYQQLPGTAPKVLIYDNNKRPSGIPDRFSGSKSGTSATLGITGLQTGDEADYYCGTWDSRLNVGVFGGGTKLTVL and report it.
Ans. 16900

Qu. Find the measured FACS Binding Geomean of 60E8 (antibody, V domains shown, mAb) VH: QVQLQESGPGLVRPSATLSLTCTVSGGSISRSSYYWGWIRQPPGKGLEWIGSIYYSGSASYNPSLKSRVTISVDTSENQFSLRLSSVTAADTAVYYCARLDSGWSFDYWGQGTLVTVSS VL: DIQMTQSPSSLSASVGDRVTFTCRASQGIRNDLGWFQQKPGKAPKRLIYAASSLQSGVPSRFSGSGSGTEFTLTISSLQPEDFATYYCLQHSSYPLTFGGGTKVEIK and report it.
Ans. 38700

Qu. Find the measured FACS Binding Geomean of 65C12 (antibody, V domains shown, mAb) VH: EVQLVESGGGLVKPGGSLRLSCAASGFTFRSFSLNWVRQAPGKGLEWVSSISSSSSYIYYADSVKGRFTISRDNAKNSLYLQMNSLRAEDTAVYYCARDAYSHYWGQGTLVTVSS VL: EIVMTQSPATLSVFPGEGATLSCRASQSVSINLAWYQQKPGQAPRLLIYGASTRATGIPARFNASGSGTEFTLSISSLQSENFAVYYCQQYNTWPLTFGGGTKVEIK and report it.
Ans. 56100
